molecular target: human GRP receptor (human, UniProt P30550 1-384); test: cell-based or functional assay
Sequence (P30550 whole entry): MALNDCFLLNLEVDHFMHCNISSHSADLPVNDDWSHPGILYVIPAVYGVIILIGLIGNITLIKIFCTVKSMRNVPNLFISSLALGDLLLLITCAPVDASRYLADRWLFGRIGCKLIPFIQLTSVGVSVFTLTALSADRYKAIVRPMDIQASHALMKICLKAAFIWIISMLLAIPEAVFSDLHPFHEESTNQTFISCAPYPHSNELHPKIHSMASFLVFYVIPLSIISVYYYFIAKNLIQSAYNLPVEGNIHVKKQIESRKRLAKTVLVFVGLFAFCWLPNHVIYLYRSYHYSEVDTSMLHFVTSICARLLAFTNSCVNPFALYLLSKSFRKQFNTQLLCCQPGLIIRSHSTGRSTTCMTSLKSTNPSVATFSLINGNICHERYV
Starred links: 1 amine or outer side, 2 acyl side, 3 side chain; linkers in the order of their positions; H or OH if unused. Non-standard residues stand in square brackets, D forms with d. *: point of attachment. d(γGlu) = O=C(O)[C@@H](CCC(=O)[*:2])N[*:1]; C18 diacid = O=C(O)CCCCCCCCCCCCCCCCC(=O)*; γGlu = O=C(O)[C@H](CCC(=O)[*:2])N[*:1]; Nle = CCCC[C@H](N)C(=O)O; AEEA = NCCOCCOCC(=O)O
Readout Name: hIP1 GRPR EC50

[[record]]
binder = "{C18 diacid}-[d(γGlu)][AEEA][AEEA]GNHWAV[dA]HL[Nle]-NH2 (SMILES CCCC[C@H](NC(=O)[C@H](CC(C)C)NC(=O)[C@H](Cc1c[nH]cn1)NC(=O)[C@@H](C)NC(=O)[C@@H](NC(=O)[C@H](C)NC(=O)[C@H](Cc1c[nH]c2ccccc12)NC(=O)[C@H](Cc1c[nH]cn1)NC(=O)[C@H](CC(N)=O)NC(=O)CNC(=O)COCCOCCNC(=O)COCCOCCNC(=O)CC[C@@H](NC(=O)CCCCCCCCCCCCCCCCC(=O)O)C(=O)O)C(C)C)C(N)=O) [Peptide 9]"
reported_result = "9.4 nM"

[[record]]
binder = "{C18 diacid}-[γGlu][AEEA][AEEA]GQHWAV[dA]HL[Nle]-NH2 (SMILES CCCC[C@H](NC(=O)[C@H](CC(C)C)NC(=O)[C@H](Cc1c[nH]cn1)NC(=O)[C@@H](C)NC(=O)[C@@H](NC(=O)[C@H](C)NC(=O)[C@H](Cc1c[nH]c2ccccc12)NC(=O)[C@H](Cc1c[nH]cn1)NC(=O)[C@H](CCC(N)=O)NC(=O)CNC(=O)COCCOCCNC(=O)COCCOCCNC(=O)CC[C@H](NC(=O)CCCCCCCCCCCCCCCCC(=O)O)C(=O)O)C(C)C)C(N)=O) [Peptide 147]"
reported_result = "5.72 nM"

